Reference source: the Deep4Chem optical property database

test: photoluminescence quantum yield (fraction); solvent given as SMILES; settings: in Cc1ccccc1
Measured photoluminescence quantum yield values are reported for all entries that follow.
Lab note: jot the number down without any unit.

Q: // returns reported photoluminescence quantum yield for input "CCOC(=O)CN1C(=O)C2=C(c3ccccc3)N(CC(=O)OCC)C(=O)C2=C1c1ccccc1"
Result: 0.36

Q: // returns reported photoluminescence quantum yield for input "CCn1c2sccc2c2c3nsnc3c3c4ccsc4n(CC)c3c21"
Result: 0.45

Q: // returns reported photoluminescence quantum yield for input C#CC1CN2CCC1CC2[C@@H](O)c1ccnc2ccc(OC)cc12 (stereo partly specified)
Result: 0.023

Q: // returns reported photoluminescence quantum yield for input "N#Cc1c(-n2c3ccccc3c3ccccc32)cccc1-n1c2ccccc2c2ccccc21"
Result: 0.13

Q: // returns reported photoluminescence quantum yield for input "c1ccc([B-]2(c3ccccc3)Oc3ccc4ccccc4c3-c3c4ccccc4cn[n+]32)cc1"
Result: 0.15

Q: // returns reported photoluminescence quantum yield for input "F[B-]1(F)OC(c2ccccc2)=Nc2sc(-c3ccccc3)n[n+]21"
Result: 0.06

Q: // returns reported photoluminescence quantum yield for input "CCCCCCCCC1(CCCCCCCC)c2ccccc2-c2ccc(-c3nnc(-c4ccc(-n5c6ccc(C(C)(C)C)cc6c6cc(C(C)(C)C)ccc65)cc4)o3)cc21"
Result: 0.88

Q: // returns reported photoluminescence quantum yield for input "CC1(C)c2ccccc2N(c2ccc(-c3cc(C#N)c(C#N)cc3-c3ccc(N4c5ccccc5C(C)(C)c5ccccc54)cc3)cc2)c2ccccc21"
Result: 0.59

Q: // returns reported photoluminescence quantum yield for input "CN(C)c1ccc(-c2c(/C=C3/C=Cc4ccccc4N3Cc3ccccc3)c(=O)c2=O)cc1"
Result: 0.0141

Q: // returns reported photoluminescence quantum yield for input "O=C1/C(=C\c2ccc3oc4ccccc4c3c2)S(=O)(=O)c2ccccc21"
Result: 0.116

Q: // returns reported photoluminescence quantum yield for input "COc1ccc2n1[B-](F)(F)[N+]1=C(c3ccccc3)C=CC1=C2c1ccc(C)cc1"
Result: 0.51
